Provide the reported EC50 of each item.
biological target: human Mincle (Homo sapiens, UniProt Q9ULY5); construct: host or cells: HEK (HEK-Blue) cells with NF-κB-driven SEAP reporter; test: HEK cells expressing human Mincle with NF-κB-driven SEAP reporter; format: cell-based; conditions: average calculated EC50, n = 3; plate-coated compound, 24 h; read-out: hMincle EC50 (converted)
Sequence (Q9ULY5 whole entry): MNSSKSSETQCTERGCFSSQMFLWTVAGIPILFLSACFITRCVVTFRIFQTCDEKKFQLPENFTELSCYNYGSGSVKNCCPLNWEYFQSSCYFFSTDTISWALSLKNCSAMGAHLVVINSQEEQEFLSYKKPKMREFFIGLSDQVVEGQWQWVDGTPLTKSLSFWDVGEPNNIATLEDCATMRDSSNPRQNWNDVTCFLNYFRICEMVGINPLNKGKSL
Please give a number only; it is taken to be in nM.

Query string: Look up EC50 with human Mincle (Homo sapiens, UniProt Q9ULY5) for this compound: CCCCCCCCCCCCCCC(CCCCCCCCCCCCCC)C(=O)OC[C@H]1O[C@H](O[C@H]2O[C@H](COC(=O)C(CCCCCCCCCCCCCC)CCCCCCCCCCCCCC)[C@@H](O)[C@H](O)[C@H]2O)[C@H](O)[C@@H](O)[C@@H]1O
Result string: 43.8

Query string: Please do the same for CCCCCCCCCCC(CCCCCCCCCC)C(=O)OC[C@H]1O[C@H](O[C@H]2O[C@H](COC(=O)C(CCCCCCCCCC)CCCCCCCCCC)[C@@H](O)[C@H](O)[C@H]2O)[C@H](O)[C@@H](O)[C@@H]1O as well.
Result string: 322

Query string: Please do the same for CCCCCCCCCCCCCC(CCCCCCCCCCCCC)C(=O)OC[C@H]1O[C@H](O[C@H]2O[C@H](COC(=O)C(CCCCCCCCCCCCC)CCCCCCCCCCCCC)[C@@H](O)[C@H](O)[C@H]2O)[C@H](O)[C@@H](O)[C@@H]1O as well.
Result string: 77.4

Query string: Please do the same for CCCCCCCCCC(CCCCCCCCC)C(=O)OC[C@H]1O[C@H](O[C@H]2O[C@H](COC(=O)C(CCCCCCCCC)CCCCCCCCC)[C@@H](O)[C@H](O)[C@H]2O)[C@H](O)[C@@H](O)[C@@H]1O as well.
Result string: 128

Query string: Please do the same for CCCCCCCCCCCCC(CCCCCCCCCCCC)C(=O)OC[C@H]1O[C@H](O[C@H]2O[C@H](COC(=O)C(CCCCCCCCCCCC)CCCCCCCCCCCC)[C@@H](O)[C@H](O)[C@H]2O)[C@H](O)[C@@H](O)[C@@H]1O as well.
Result string: 263

Query string: Please do the same for CCCCCCCCC(CCCCCCCC)C(=O)OC[C@H]1O[C@H](O[C@H]2O[C@H](COC(=O)C(CCCCCCCC)CCCCCCCC)[C@@H](O)[C@H](O)[C@H]2O)[C@H](O)[C@@H](O)[C@@H]1O as well.
Result string: 405

Query string: Please do the same for CCCCCCCCCCCC(CCCCCCCCCCC)C(=O)OC[C@H]1O[C@H](O[C@H]2O[C@H](COC(=O)C(CCCCCCCCCCC)CCCCCCCCCCC)[C@@H](O)[C@H](O)[C@H]2O)[C@H](O)[C@@H](O)[C@@H]1O as well.
Result string: 92.6

Query string: Please do the same for CCCCCCCCCCCCCCCC(CCCCCCCCCCCCCCC)C(=O)OC[C@H]1O[C@H](O[C@H]2O[C@H](COC(=O)C(CCCCCCCCCCCCCCC)CCCCCCCCCCCCCCC)[C@@H](O)[C@H](O)[C@H]2O)[C@H](O)[C@@H](O)[C@@H]1O as well.
Result string: 50.2

Query string: Please do the same for CCCCCCCCCCCCCCCCCC(CCCCCCCCCCCCCCCCC)C(=O)OC[C@H]1O[C@H](O[C@H]2O[C@H](COC(=O)C(CCCCCCCCCCCCCCCCC)CCCCCCCCCCCCCCCCC)[C@@H](O)[C@H](O)[C@H]2O)[C@H](O)[C@@H](O)[C@@H]1O as well.
Result string: 21400
